Measurement Target: human S1P1 receptor (Homo sapiens)
Sequence (P21453 whole entry): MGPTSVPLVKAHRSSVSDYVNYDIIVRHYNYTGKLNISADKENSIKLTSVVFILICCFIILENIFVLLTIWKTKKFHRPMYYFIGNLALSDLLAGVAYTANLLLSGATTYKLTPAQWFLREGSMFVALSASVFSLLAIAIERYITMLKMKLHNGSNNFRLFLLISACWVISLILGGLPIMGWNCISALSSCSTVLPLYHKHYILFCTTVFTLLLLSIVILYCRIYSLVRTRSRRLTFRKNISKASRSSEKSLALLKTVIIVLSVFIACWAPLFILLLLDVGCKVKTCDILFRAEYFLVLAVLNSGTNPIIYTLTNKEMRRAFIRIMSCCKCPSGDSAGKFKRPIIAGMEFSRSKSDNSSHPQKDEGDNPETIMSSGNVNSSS
Protocol Description: GTPγS assay to determine EC50 values
Assay type: biochemical
Test Conditions: 35S-GTPγS binding, membrane preparations of CHO cells expressing recombinant human S1P1 receptor; agonistic activity
This section presents compounds with their documented EC50 values.

>  <Structure Notation>
CCCNc1nc(C)cc(-c2noc(-c3cc(C)nc(Cl)c3)n2)n1

>  <Measurement Target>
human S1P1 receptor (Homo sapiens)

>  <EC50, nM>
22

$$$$
>  <Structure Notation>
CCc1cc(-c2nc(-c3cc(C)nc(OC)n3)no2)cnc1N(C)C(C)C

>  <Measurement Target>
human S1P1 receptor (Homo sapiens)

>  <EC50, nM>
190

$$$$
>  <Structure Notation>
CCNc1nc(CC)cc(-c2nc(-c3cc(C)nc(C)c3)no2)n1

>  <Measurement Target>
human S1P1 receptor (Homo sapiens)

>  <EC50, nM>
1.2

$$$$
>  <Structure Notation>
CCc1cc(-c2nc(-c3cc(C)nc(N(C)C(C)C)n3)no2)cnc1N(C)C(C)C

>  <Measurement Target>
human S1P1 receptor (Homo sapiens)

>  <EC50, nM>
3220

$$$$
>  <Structure Notation>
CCc1cc(-c2noc(-c3cc(C)nc(OCC(C)C)n3)n2)cc(C)n1

>  <Measurement Target>
human S1P1 receptor (Homo sapiens)

>  <EC50, nM>
142

$$$$
>  <Structure Notation>
Cc1cc(-c2nc(-c3cc(C)nc(NCC(C)C)n3)no2)cc(Cl)n1

>  <Measurement Target>
human S1P1 receptor (Homo sapiens)

>  <EC50, nM>
31

$$$$
>  <Structure Notation>
CNc1nc(C)cc(-c2noc(-c3cc(C)nc(N(C)C)c3)n2)n1

>  <Measurement Target>
human S1P1 receptor (Homo sapiens)

>  <EC50, nM>
560

$$$$
>  <Structure Notation>
Cc1cc(-c2nc(-c3cc(C)nc(N(C)C(C)C)n3)no2)cc(N(C)C)n1

>  <Measurement Target>
human S1P1 receptor (Homo sapiens)

>  <EC50, nM>
241

$$$$
>  <Structure Notation>
CCN(c1nc(C)cc(-c2nc(-c3cc(C)nc(OC)c3)no2)n1)C(C)C

>  <Measurement Target>
human S1P1 receptor (Homo sapiens)

>  <EC50, nM>
39

$$$$
>  <Structure Notation>
COc1nc(C)cc(-c2noc(-c3cc(C)nc(N(C)C)c3)n2)n1

>  <Measurement Target>
human S1P1 receptor (Homo sapiens)

>  <EC50, nM>
1140

$$$$
>  <Structure Notation>
Cc1cc(-c2noc(-c3cc(C)nc(N(C)C(C)C)n3)n2)cc(C)n1

>  <Measurement Target>
human S1P1 receptor (Homo sapiens)

>  <EC50, nM>
1.3

$$$$
>  <Structure Notation>
COc1nc(C)cc(-c2nc(-c3cc(C)nc(C(C)C)c3)no2)n1

>  <Measurement Target>
human S1P1 receptor (Homo sapiens)

>  <EC50, nM>
126

$$$$
>  <Structure Notation>
Cc1cc(-c2noc(-c3cc(C)nc(NC(C)C)n3)n2)cc(N(C)C)n1

>  <Measurement Target>
human S1P1 receptor (Homo sapiens)

>  <EC50, nM>
46

$$$$
>  <Structure Notation>
Cc1cc(CC(C)C)nc(-c2nc(-c3cc(C)nc(N(C)C)n3)no2)c1

>  <Measurement Target>
human S1P1 receptor (Homo sapiens)

>  <EC50, nM>
318

$$$$
>  <Structure Notation>
Cc1cc(-c2nc(-c3ccc(C)c(C)n3)no2)nc(NC(C)C)n1

>  <Measurement Target>
human S1P1 receptor (Homo sapiens)

>  <EC50, nM>
20

$$$$
>  <Structure Notation>
COc1nc(C)cc(-c2noc(-c3cc(C)nc(CC(C)C)c3)n2)n1

>  <Measurement Target>
human S1P1 receptor (Homo sapiens)

>  <EC50, nM>
27

$$$$
>  <Structure Notation>
CCCN(C)c1nc(C)cc(-c2noc(-c3cc(C)nc(C)c3)n2)n1

>  <Measurement Target>
human S1P1 receptor (Homo sapiens)

>  <EC50, nM>
34

$$$$
>  <Structure Notation>
CCCNc1nc(C)cc(-c2noc(-c3cnc(CC(C)C)c(C)c3)n2)n1

>  <Measurement Target>
human S1P1 receptor (Homo sapiens)

>  <EC50, nM>
5780

$$$$

Value source: patent US20110046170A1
